Cited source: patent US9975917B1

- measuredTarget: 5-Lipoxygenase (Rattus norvegicus)
- Construct: from 20 μM exogenous substrate in 105.000 g supernatants of rat PMNL (System B); from tissue; host or cells: 105,000 g supernatant of sonicated peritoneal PMNL of Wistar rats
- Sequence (P12527 whole entry): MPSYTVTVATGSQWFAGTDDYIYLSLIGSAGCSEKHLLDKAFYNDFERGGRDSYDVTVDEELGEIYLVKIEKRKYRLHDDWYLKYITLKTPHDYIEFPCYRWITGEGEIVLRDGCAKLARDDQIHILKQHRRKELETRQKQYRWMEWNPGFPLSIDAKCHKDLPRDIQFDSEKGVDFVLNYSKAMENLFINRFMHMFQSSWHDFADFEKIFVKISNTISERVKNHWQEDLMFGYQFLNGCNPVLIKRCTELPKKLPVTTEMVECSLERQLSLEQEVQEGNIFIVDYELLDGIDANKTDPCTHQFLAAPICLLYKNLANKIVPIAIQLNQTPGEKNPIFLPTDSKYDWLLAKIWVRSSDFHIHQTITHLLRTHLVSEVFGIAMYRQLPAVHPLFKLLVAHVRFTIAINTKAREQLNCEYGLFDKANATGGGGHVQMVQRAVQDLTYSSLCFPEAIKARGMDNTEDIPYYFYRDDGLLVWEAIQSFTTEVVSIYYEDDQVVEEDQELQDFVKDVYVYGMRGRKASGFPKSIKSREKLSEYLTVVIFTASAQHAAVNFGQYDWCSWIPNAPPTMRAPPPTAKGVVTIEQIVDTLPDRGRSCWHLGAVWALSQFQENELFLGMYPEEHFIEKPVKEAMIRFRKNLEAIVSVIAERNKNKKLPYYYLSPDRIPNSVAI
- assayMethodText: 5-LOX product formation from 20 μM exogenous substrate in 105,000 g supernatants of rat PMNL, cell-free (System B)
- Assay type: biochemical
- conditionDetails: cell-free 105,000 g supernatant of rat PMNL, 20 μM arachidonic acid, 1 mM ATP, 1.8 mM CaCl2, 37° C. 5 min; means±standard deviation, n=6
- Procedure: Glycogen-elicited rat peritoneal PMNL were collected 4 hours after the injection of a glycogen solution (5%) in Dulbecco's phosphate-buffered saline (PBS) into the peritoneum of 300-350 g Wistar rats. […] Inhibitors and non-inhibitory pentacyclic triterpenes were added simultaneously. […] The 5-lipoxygenase products were quantified after the addition of 170 ng PGB2 as an internal standard by extraction, with RP-HPLC separation and ultraviolet detection of products. […]
Lab note - cut at 0.2 µM for IC50: t if strictly below, f if not.

Worked cases, answers included:
compound	classLabel
CC1CCC2(C)CCC3(C)C(=CC(=O)C4C5(C)CCC(=O)C(C)(C(=O)Cl)C5CCC43C)C2C1C (stereo not drawn) [Compound 3, 3,11-dioxo-urs-12-en-24β-acid chloride]	f
CC1CCC2(C)CCC3(C)C(=CC(=O)C4C5(C)CCC(=O)C(C)(C(=O)c6ccccc6)C5CCC43C)C2C1C (stereo not shown)	t
CC1CCC2(C)CCC3(C)C(=CC(=O)C4C5(C)C=CC(=O)C(C)(c6ccccc6)C5CCC43C)C2C1C (stereo not shown)	f

stdin: Is it true that IC50 reported for CC(=O)O[C@@H]1CC[C@@]2(C)[C@@H](CC[C@]3(C)[C@@H]2C(=O)C=C2[C@@H]4[C@@H](C)[C@H](C)CC[C@]4(C)CC[C@]23C)[C@@]1(C)C(=O)O [AKBA, Acetyl-11-keto-β-boswellic acid, reference compound] is less than 0.2 µM?
stdout: f

stdin: Is it true that IC50 reported for CC1CCC2(C)CCC3(C)C(=CC(=O)C4C5(C)C=CC(=O)C(C)(C(=O)c6ccccc6)C5CCC43C)C2C1C (stereo not shown) is less than 0.2 µM?
stdout: t

stdin: Is it true that IC50 reported for CC1CCC2(C)CCC3(C)C(=CC(=O)C4C5(C)CCC(O)C(C)(C(=O)O)C5CCC43C)C2C1C (stereo not drawn) [11-keto-β-boswellic acid/1, 11-keto-β-boswellic acid, reference compound] is less than 0.2 µM?
stdout: f

stdin: Is it true that IC50 reported for CC1CCC2(C)CCC3(C)C(=CC(=O)C4C5(C)CCC(=O)C(C)(c6ccccc6)C5CCC43C)C2C1C (stereo not shown) is less than 0.2 µM?
stdout: f
